Catalogue of OD values
measured_target: T1, truncated recombinant form of HBeAg containing nine residues of pre-core and the 150 first residues of HBcAg (hepatitis B virus, UniProt P03146 1-150)
T1 construct: domain: nine residues of pre-core;range 1-150; also called hepatitis B virus e antigen
T1 sequence (P03146 1-150): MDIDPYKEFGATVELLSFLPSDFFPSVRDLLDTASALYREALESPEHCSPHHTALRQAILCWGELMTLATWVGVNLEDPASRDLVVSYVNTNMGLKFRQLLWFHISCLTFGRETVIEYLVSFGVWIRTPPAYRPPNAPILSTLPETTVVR
experiment_description: EIA, support-bound peptide, HBeAg 20 ug/ml
Could you give me the number in OD? Just the number is fine.

Consider the worked cases shown below.
ISCRASQSVSTSSYSYMHWY [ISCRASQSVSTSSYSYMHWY (SEQ. ID. No. 17)] = 0.687
CKASGYSFTGYNMNWVKQSH (also called Peptide # 26) [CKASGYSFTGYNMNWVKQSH (SEQ. ID. No. 29)] = 0.241
YNMNWVKQSHGKSLEWIGNI (also called Peptide # 27) [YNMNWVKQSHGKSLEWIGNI (SEQ. ID. No. 30)] = 0.04
VKPGASVKLSCKASGYIFTS (also called Peptide # 2; Pept. #2) [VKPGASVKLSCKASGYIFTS (SEQ. ID. No. 5)] = 0.751

// lookup OD for LAVSLGQRATISCRASQSVS [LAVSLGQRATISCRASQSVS (SEQ. ID. No. 16)]
0.393

// lookup OD for VKPGASVKISCKASGYSFTG (also called Peptide # 25) [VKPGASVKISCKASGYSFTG (SEQ. ID. No. 28)]
0.319
